# assayed-system: inosine-guanosine kinase derived from Exiguobacterium acetylicum (Exiguobacterium acetylicum, UniProt O24767)
# Sequence (O24767 whole entry): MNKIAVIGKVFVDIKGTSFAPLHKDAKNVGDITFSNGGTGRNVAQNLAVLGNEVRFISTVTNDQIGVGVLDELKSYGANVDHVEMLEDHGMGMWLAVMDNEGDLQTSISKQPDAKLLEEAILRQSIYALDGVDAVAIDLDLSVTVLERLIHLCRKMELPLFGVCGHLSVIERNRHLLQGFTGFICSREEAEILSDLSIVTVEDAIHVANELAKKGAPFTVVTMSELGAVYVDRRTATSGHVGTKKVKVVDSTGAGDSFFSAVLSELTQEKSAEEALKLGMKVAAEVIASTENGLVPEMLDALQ
# protocol: Effect of metal ions on the purified kinase
# Format: biochemical
# measurement-parameters: 1 mM metal ions
quantity-name: inhibition of the enzyme by metal ions (in words)

[Cl][Cd][Cl] = also inhibited
[Cl][Hg][Cl] = strongly inhibited
[Cl-].[Cl-].[Zn+2] = also inhibited
O.O.[Cl][Cu][Cl] = strongly inhibited

* * *

The entries below are paired with their reported Relative activity.
# assayed-system: UniProtKB O24767
# protocol: Effect of metal ions on the purified kinase
# Format: biochemical
# measurement-parameters: Metal salts (1 mM) present in the reaction mixture; not added = 100
quantity-name: Relative activity (%)

O.O.[Ca+2].[Cl-].[Cl-] = 71
[Cl][Hg][Cl] = 22
O.O.O.O.O.O.[Cl-].[Cl-].[Co+2] = 103
[Ba+2].[Cl-].[Cl-] = 106
[Cl-].[Cl-].[Zn+2] = 58
[Cl][Cd][Cl] = 43
O.O.O.O.[Cl][Mn][Cl] = 81
O.O.[Cl][Cu][Cl] = 25
O.O.O.O.O.O.[Cl][Ni][Cl] = 113
O.O.O.O.O.O.O.O=S(=O)([O-])[O-].[Mg+2] = 110
O.O.O.O.O.O.O.O=S(=O)([O-])[O-].[Fe+2] = 95

* * *

# assayed-system: UniProtKB O24767
# protocol: Phosphate donor specificity (nucleoside triphosphates) of the purified kinase
# Format: biochemical
# measurement-parameters: Nucleoside triphosphate (5 mM) instead of ATP; ATP = 100
Mark criterion not met for Relative activity values under 60%, and criterion met for everything at or above.

O=c1ccn([C@@H]2O[C@H](COP(=O)(O)OP(=O)(O)OP(=O)(O)O)[C@@H](O)[C@H]2O)c(=O)[nH]1 [uridine triphosphate] = criterion not met
Nc1ncnc2c1ncn2[C@@H]1O[C@H](COP(=O)(O)OP(=O)(O)OP(=O)(O)O)[C@@H](O)[C@H]1O [adenosine triphosphate] = criterion met
Nc1ccn([C@@H]2O[C@H](COP(=O)(O)OP(=O)(O)OP(=O)(O)O)[C@@H](O)[C@H]2O)c(=O)n1 [cytidine triphosphate] = criterion not met
Nc1ncnc2c1ncn2[C@H]1C[C@H](O)[C@@H](COP(=O)(O)OP(=O)(O)OP(=O)(O)O)O1 [2′-deoxyadenosine triphosphate] = criterion met

* * *

# assayed-system: UniProt O24767
# protocol: Substrate specificity (nucleoside as phosphate receptor) of the purified kinase
# Format: biochemical
# measurement-parameters: Nucleoside (0.5 mM) instead of guanosine, [γ-32P]-ATP; guanosine = 100
quantity-name: Relative activity (%)

Nc1ncnc2c1ncn2[C@H]1C[C@H](O)[C@@H](CO)O1 = 0
O=c1[nH]c(=O)c2ncn([C@@H]3O[C@H](CO)[C@@H](O)[C@H]3O)c2[nH]1 = 0
Nc1ncnc2c1ncn2[C@@H]1O[C@H](CO)[C@@H](O)[C@H]1O = 0
Nc1nc2c(ncn2[C@H]2C[C@H](O)[C@@H](CO)O2)c(=O)[nH]1 = 4
OC[C@H]1O[C@@H](n2cnc3c(O)ncnc32)[C@H](O)[C@@H]1O = 5
Nc1nc2c(ncn2[C@@H]2O[C@H](CO)[C@@H](O)[C@H]2O)c(=O)[nH]1 = 100

* * *

# assayed-system: inosine-guanosine kinase derived from Exiguobacterium acetylicum (Exiguobacterium acetylicum, UniProt O24767)
# protocol: Metal requirement of the purified kinase
# Assay type: biochemical
# measurement-parameters: Metal salts (5 mM) instead of magnesium chloride; MgCl2 = 100
Relative activity listing for selected molecules.
quantity-name: Relative activity (%)

O.O.O.O.[Cl][Mn][Cl] = 55
O.O.O.O.O.O.O.O=S(=O)([O-])[O-].[Mg+2] = 107
O.O.O.O.O.O.[Cl-].[Cl-].[Co+2] = 36
O.O.O.O.O.O.[Cl-].[Cl-].[Mg+2] = 100
[Cl-].[Cl-].[Zn+2] = 1
O.O.[Ca+2].[Cl-].[Cl-] = 1
O.O.O.O.O.O.[Cl][Ni][Cl] = 1
O.O.O.O.O.O.O.O=S(=O)([O-])[O-].[Fe+2] = 24
